# assayed_system: FAAH (Homo sapiens, UniProt O00519)
# Sequence (O00519 1-579): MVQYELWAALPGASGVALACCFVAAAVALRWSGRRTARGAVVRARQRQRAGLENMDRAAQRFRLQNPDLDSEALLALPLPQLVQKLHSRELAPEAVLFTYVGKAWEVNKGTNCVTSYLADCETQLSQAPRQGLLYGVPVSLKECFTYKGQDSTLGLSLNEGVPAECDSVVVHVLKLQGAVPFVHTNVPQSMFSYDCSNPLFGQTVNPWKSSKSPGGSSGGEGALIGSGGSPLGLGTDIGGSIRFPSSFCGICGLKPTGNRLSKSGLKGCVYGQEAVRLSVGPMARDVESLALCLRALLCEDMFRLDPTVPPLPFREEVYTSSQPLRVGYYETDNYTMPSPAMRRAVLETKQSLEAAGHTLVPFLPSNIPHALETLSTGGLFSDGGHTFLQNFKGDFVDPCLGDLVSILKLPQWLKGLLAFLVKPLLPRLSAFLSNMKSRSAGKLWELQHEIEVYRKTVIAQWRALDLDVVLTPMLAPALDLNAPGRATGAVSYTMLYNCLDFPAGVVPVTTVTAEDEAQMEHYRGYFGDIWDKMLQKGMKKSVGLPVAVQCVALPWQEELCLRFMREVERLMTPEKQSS
# procedure_summary: Assay Method 1: FAAH assay, 3H-anandamide hydrolysis in homogenate of cells transfected with human FAAH
# measurement_conditions: cell homogenate, 3H-AEA 80 nM, 1 h at rt, average of results
Each record here notes measured pIC50.
Value format note: pIC50 is -log10 of concentration (mol/L); just state the number.

Example cases with answers are listed next.
                                   molecule                       assayed_system  readout  numeric_result
0  O=C(Nc1cccnc1)N1CC(CCOc2cccc(Oc3ccccc3)c2)C1  FAAH (Homo sapiens, UniProt O00519)    pIC50            6.44
1  O=C(Nc1cccnc1)N1CCC(COc2cccc(Oc3ccc(Cl)cc3)c2)C1 (stereo not shown)  FAAH (Homo sapiens, UniProt O00519)    pIC50            6.70
2  O=C(Nc1cccnc1)N1CC(COc2cccc(Oc3ccc(OC(F)(F)F)cc3)c2)C1  FAAH (Homo sapiens, UniProt O00519)    pIC50            7.30
3  O=C(Nc1cccnc1)N1CC(COc2cccc(OCc3ccccc3)c2)C1  FAAH (Homo sapiens, UniProt O00519)    pIC50            6.52
4  O=C(Nc1cnccc1Cl)N1CCC(CCOc2cccc(Oc3ccc(Cl)cc3)c2)C1 (stereo not shown)  FAAH (Homo sapiens, UniProt O00519)    pIC50            7.20
5  O=C(Nc1cccnc1)N1CC(COc2ccc(C(F)(F)F)c(Cl)c2)C1  FAAH (Homo sapiens, UniProt O00519)    pIC50            5.85
6  O=C(Nc1cnc2[nH]ccc2c1)N1CC(CCOc2cccc(Oc3ccc(Cl)cc3)c2)C1  FAAH (Homo sapiens, UniProt O00519)    pIC50            8.52
7  O=C(Nc1cccnc1)N1CC(CCOc2cccc(C(F)(F)F)c2)C1  FAAH (Homo sapiens, UniProt O00519)    pIC50            5.80

Next item in the queue.
Tested on FAAH (Homo sapiens, UniProt O00519): "O=C(Nc1cccnc1)N1CC(COc2cccc(Oc3ccccc3)c2)C1" . Observed pIC50: 6.77
